Kindly supply the reported Emax values for the records listed here.
molecular target: Neuropeptide S receptor (Mus musculus) (UniProt Q8BZP8); assay: Agonist activity at mouse recombinant NPS receptor expressed in HEK293 cells assessed as intracellular calcium mobilization relative to baseline; type: functional, cell-based
Sequence (Q8BZP8 whole entry): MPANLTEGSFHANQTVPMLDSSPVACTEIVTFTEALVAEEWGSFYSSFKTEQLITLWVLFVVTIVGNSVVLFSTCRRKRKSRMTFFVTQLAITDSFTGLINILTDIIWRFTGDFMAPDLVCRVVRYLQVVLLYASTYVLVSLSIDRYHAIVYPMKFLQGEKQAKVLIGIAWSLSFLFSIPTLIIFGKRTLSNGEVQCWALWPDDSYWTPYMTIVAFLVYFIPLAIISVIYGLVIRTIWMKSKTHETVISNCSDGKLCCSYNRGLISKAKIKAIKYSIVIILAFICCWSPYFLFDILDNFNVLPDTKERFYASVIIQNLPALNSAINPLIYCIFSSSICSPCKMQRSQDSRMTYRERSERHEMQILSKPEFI
Non-standard residues stand in square brackets, D forms with d. Residues, ends and D or L forms follow the SMILES beside them. Phe(4-Me) = Cc1ccc(C[C@H](N)C(=O)O)cc1; Atc(2S) = N[C@@]1(C(=O)O)CCc2ccccc2C1
Please append the unit to your numeric answer.

[[record]]
molecule = "CSCC[C@H](NC(=O)CNC(=O)[C@@H](NC(=O)CNC(=O)[C@@H](NC(=O)CNC(=O)[C@H](CC(N)=O)NC(=O)[C@H](CCCNC(=N)N)NC(=O)[C@]1(NC(=O)[C@@H](N)CO)CCc2ccccc2C1)C(C)C)[C@@H](C)O)C(=O)N[C@@H](CCCCN)C(=O)N[C@@H](CCCCN)C(=O)N[C@H](C(=O)N[C@@H](CO)C(=O)N[C@@H](Cc1ccccc1)C(=O)N[C@@H](CCC(N)=O)C(=O)N[C@@H](CCCNC(=N)N)C(=O)N[C@@H](C)C(=O)N[C@@H](CCCCN)C(=O)N[C@@H](CO)C(=O)O)[C@@H](C)O (H-S[Atc(2S)]RNGVGTGMKKTSFQRAKS-OH)"
reading = "257%"


QUERY: Quick check: Emax of CSCC[C@H](NC(=O)CNC(=O)[C@@H](NC(=O)CNC(=O)[C@@H](NC(=O)CNC(=O)[C@H](CC(N)=O)NC(=O)[C@H](CCCNC(=N)N)NC(=O)[C@H](Cc1ccc(C)cc1)NC(=O)[C@@H](N)CO)C(C)C)[C@@H](C)O)C(=O)N[C@@H](CCCCN)C(=O)N[C@@H](CCCCN)C(=O)N[C@H](C(=O)N[C@@H](CO)C(=O)N[C@@H](Cc1ccccc1)C(=O)N[C@@H](CCC(N)=O)C(=O)N[C@@H](CCCNC(=N)N)C(=O)N[C@@H](C)C(=O)N[C@@H](CCCCN)C(=O)N[C@@H](CO)C(=O)O)[C@@H](C)O (H-S[Phe(4-Me)]RNGVGTGMKKTSFQRAKS-OH) ?
RESULT: 317%
